test system: U-2932; assay: growth inhibition by drug alone (1 - RLU/untreated control) (fraction); higher = stronger inhibition; details: 1000 nM; time (day): 4; 177Lu-lilotomab satetraxetan 0 ug/ml
Counter-ions that a name gives are not always drawn.
measured_parameter: growth inhibition by drug alone

CN(C)CCOc1ccc(-c2nc(-c3ccncc3)c(-c3ccc4c(c3)CC/C4=N\O)[nH]2)cc1 : 0.0148
C[C@@H](Oc1cc(-n2cnc3ccc(CN4CCN(C)CC4)cc32)sc1C(N)=O)c1ccccc1C(F)(F)F : 0.961
CC(C)(C)c1cnc(CSc2cnc(NC(=O)C3CCNCC3)s2)o1 : 0.962
CCC(CC)CC1(C(=O)Nc2ccccc2SC(=O)C(C)C)CCCCC1 : -0.0604
CCCC(CCC)C(=O)O [Valproic acid sodium salt (Sodium valproate)] : 0.0276
Oc1ccc(Nc2nc(-c3ccc(Cl)cc3)cs2)cc1 : 0.0746

Request: Name the reported growth inhibition by drug alone value associated with the compound `CS(=O)(=O)N1CCc2c(-c3cnc(N)nc3)nc(N3CCOCC3)nc21`
Result: 0.362

Request: What value of measured growth inhibition by drug alone is listed for Cc1cn(-c2cc(NC(=O)c3ccc(C)c(Nc4nccc(-c5cccnc5)n4)c3)cc(C(F)(F)F)c2)cn1 [Nilotinib (AMN-107)] ?
Result: 0.0185

Request: Suppose we examine the compound `Cc1[nH]c(/C=C2\C(=O)Nc3ccc(S(=O)(=O)N(C)c4cccc(Cl)c4)cc32)c(C)c1C(=O)N1CCN(C)CC1` ; what growth inhibition by drug alone value has been reported?
Result: -0.0391

Request: What growth inhibition by drug alone value was documented for this compound, CC1(C)CCC(c2ccc(Cl)cc2)=C(CN2CCN(c3ccc(C(=O)NS(=O)(=O)c4ccc(N[C@H](CCN5CCOCC5)CSc5ccccc5)c(S(=O)(=O)C(F)(F)F)c4)cc3)CC2)C1 [ABT-263 (Navitoclax)] ?
Result: 0.635

Request: What does the record list as growth inhibition by drug alone for Cn1cnc(N)c2ncnc1-2 [3-Methyladenine] ?
Result: 0.0177

Request: Consider the compound shown here: O=C(c1cc(Cc2n[nH]c(=O)c3ccccc23)ccc1F)N1CCN(C(=O)C2CC2)CC1 [Olaparib (AZD2281)] What is its recorded growth inhibition by drug alone?
Result: 0.025

Request: # input compound: CN(N=O)C(=O)N[C@@H](C=O)[C@@H](O)[C@H](O)[C@H](O)CO [Streptozotocin (Zanosar)] ; wanted: its growth inhibition by drug alone
Result: -0.0755

Request: Field request: growth inhibition by drug alone | item: `Cc1cnc(Nc2ccc(OCCN3CCCC3)cc2)nc1Nc1cccc(S(=O)(=O)NC(C)(C)C)c1`
Result: 0.111

Request: If you can, please state the reported growth inhibition by drug alone value of `O=C(O)CC[C@H]1CC[C@@](c2cc(F)ccc2F)(S(=O)(=O)c2ccc(Cl)cc2)CC1` .
Result: 0.041

----------
system: RIVA; experiment: growth inhibition by drug alone (1 - RLU/untreated control) (fraction); higher = stronger inhibition; conditions: 100 nM; time (day): 4; 177Lu-lilotomab satetraxetan 0 ug/ml
Tag: TRUE if measured growth inhibition by drug alone is not below -0.1, FALSE if it is.

Reference set (4 entries):
Cc1[nH]c(/C=C2\C(=O)Nc3ccc(S(=O)(=O)Cc4c(Cl)cccc4Cl)cc32)c(C)c1C(=O)N1CCC[C@@H]1CN1CCCC1 : FALSE
CCN(CC)CCCCNc1ncc2cc(-c3cc(OC)cc(OC)c3)c(NC(=O)NC(C)(C)C)nc2n1 : FALSE
Oc1cccc(-c2nc(N3CCOCC3)c3oc4ncccc4c3n2)c1 : TRUE
CC(C)(C)c1cc(NC(=O)Nc2ccc(-c3cn4c(n3)sc3cc(OCCN5CCOCC5)ccc34)cc2)no1 [Quizartinib (AC220)] : FALSE

Request: Could you tell me if the measured growth inhibition by drug alone of COc1cc2nccc(Oc3ccc(NC(=O)C4(C(=O)Nc5ccc(F)cc5)CC4)cc3)c2cc1OC [XL-184 free base (Cabozantinib)] reaches -0.1 or more?
Result: TRUE

Request: Determine whether measured growth inhibition by drug alone meets or exceeds -0.1 for CC(=O)O[C@]1(C(C)=O)CC[C@H]2[C@@H]3C[C@H](C)C4=CC(=O)CC[C@]4(C)[C@H]3CC[C@@]21C [Medroxyprogesterone acetate]
Result: FALSE

----------
system: RIVA; test: growth inhibition by drug alone (1 - RLU/untreated control) (fraction); higher = stronger inhibition; settings: 10 nM; time (day): 3; 177Lu-lilotomab satetraxetan 0 ug/ml
Catalogue of growth inhibition by drug alone readings, one per entry.

As a guide, the following entries are already answered.
CS(=O)(=O)c1ccc(C(=O)Nc2ccc(Cl)c(-c3ccccn3)c2)c(Cl)c1 : 0.089
Cc1c(C(=O)Nc2ccc(N3C[C@@H](C)O[C@@H](C)C3)nc2)cccc1-c1ccc(OC(F)(F)F)cc1 : -0.0165
O=C(O)C1(C(=O)O)CCC1.[NH2-].[NH2-].[Pt+2] : -0.0898

Request: Record request: growth inhibition by drug alone value, item COc1ccc2c(c1)CCC1C2CCC2(C)C(NCCCCCCN3C(=O)C=CC3=O)CCC12 (centres undefined)
Result: -0.042

----------
tested on: U-2932; experiment: growth inhibition by drug alone (1 - RLU/untreated control) (fraction); higher = stronger inhibition; details: 10 nM; time (day): 5; 177Lu-lilotomab satetraxetan 0 ug/ml
The compounds listed here are annotated with their growth inhibition by drug alone.
Respond with the number and no other words.

Observe how each entry below is paired with its result.
Nc1nc(F)nc2c1ncn2[C@@H]1O[C@H](CO)[C@@H](O)[C@@H]1O : -0.102
CN1CCN(c2nc(C3=C(c4c[nH]c5ccccc45)C(=O)NC3=O)c3ccccc3n2)CC1 : 0.0846
O=c1c(O)c(-c2ccc(O)c(O)c2)oc2cc(O)cc(O)c12 [Quercetin (Sophoretin)] : -0.0824
Nc1nc(OCc2cc(Br)cs2)c2[nH]cnc2n1 : -0.163
CC(C)(C)c1ccc(S(=O)(=O)/C=C/C#N)cc1 : -0.0262
O=c1cc(-c2cccc3c2Sc2ccccc2S3)oc(N2CCOCC2)c1 : -0.0216

# evaluate next
Request: Recorded growth inhibition by drug alone of `Cn1cc(-c2ccc3nnc(C(F)(F)c4ccc5ncccc5c4)n3n2)cn1` , please.
Result: -0.0614

----------
test system: RIVA; experiment: growth inhibition by drug plus 177Lu-lilotomab satetraxetan (1 - RLU/untreated control) (fraction); higher = stronger inhibition; conditions: 10 nM; time (day): 4; 177Lu-lilotomab satetraxetan 0.5 ug/ml
In this section, each of the compounds is paired with its reported growth inhibition by drug plus 177Lu-lilotomab satetraxetan.
Give the figure by itself; no unit, no explanation.

O=C(NOC[C@H](O)CO)c1ccc(F)c(F)c1Nc1ccc(I)cc1F : 0.514
Cc1ccc(S(=O)(=O)C=CC#N)cc1 : 0.5

With those in mind, consider the next compound.
Request: Consider the compound shown here: `CN1CCN(c2nc(C3=C(c4c[nH]c5ccccc45)C(=O)NC3=O)c3ccccc3n2)CC1` What is its recorded growth inhibition by drug plus 177Lu-lilotomab satetraxetan?
Result: 0.604

----------
test system: RIVA; assay: growth inhibition by drug alone (1 - RLU/untreated control) (fraction); higher = stronger inhibition; details: 100 nM; time (day): 6; 177Lu-lilotomab satetraxetan 0 ug/ml
growth inhibition by drug alone values for the molecules below.
When you answer, write just the number.

Previously resolved entries follow.
O=C(NCCS(=O)(=O)c1ccc(C(F)(F)F)cn1)c1ccc(Cl)cc1 : -0.458
Cc1cc(Nc2cc(N3CCN(C)CC3)nc(/C=C/c3ccccc3)n2)n[nH]1 : -0.539
N#Cc1c(O)c2c(-c3ccc(-c4ccccc4O)cc3)csc2[nH]c1=O : -0.39

Please find the next molecule below.
Request: I'd like to know its growth inhibition by drug alone. The molecule in question is `O=C(Nc1ccccc1-c1cn2c(CN3CCNCC3)csc2n1)c1cnc2ccccc2n1`
Result: -0.193

----------
tested on: RIVA; experiment: growth inhibition by drug plus 177Lu-lilotomab satetraxetan (1 - RLU/untreated control) (fraction); higher = stronger inhibition; details: 100 nM; time (day): 5; 177Lu-lilotomab satetraxetan 0.5 ug/ml
measured_parameter: growth inhibition by drug plus 177Lu-lilotomab satetraxetan
Number, no unit, nothing else.

Below, 5 compounds whose answers are already recorded.
CCC1=C[C@@H]2CN(C1)Cc1c([nH]c3ccccc13)[C@@](C(=O)OC)(c1cc3c(cc1OC)N(C)[C@H]1[C@@](O)(C(=O)OC)[C@H](OC(C)=O)[C@]4(CC)C=CCN5CC[C@]31[C@@H]54)C2 [Vinorelbine (Navelbine)] : 0.982
CC(C)C[C@H](NC(=O)[C@@H](O)[C@H](N)Cc1ccccc1)C(=O)O [Ubenimex (Bestatin)] : 0.554
CCC(C)(C)C(=O)O[C@H]1C[C@@H](C)C=C2C=C[C@H](C)[C@H](CC[C@@H]3C[C@@H](O)CC(=O)O3)[C@H]21 [Simvastatin (Zocor)] : 0.501
COc1cccc2c1C(=O)c1c(O)c3c(c(O)c1C2=O)C[C@@](O)(C(=O)CO)C[C@@H]3O[C@H]1C[C@H](N)[C@H](O)[C@H](C)O1 [Doxorubicin (Adriamycin)] : 0.952
COc1cc2ncnc(Nc3cccc(Br)c3)c2cc1OC : 0.487

Request: Give its growth inhibition by drug plus 177Lu-lilotomab satetraxetan value. Item: `N#Cc1ccc(NC(=O)Nc2ccccc2Br)c2n[nH]nc12`
Result: 0.544
